The measurements presented in this section are drawn from paper PMC9758846.

Measured pIC50 by item
# System: Plasmodium falciparum IPC5202 (Pf5202)
# test: In vitro anti-malarial activity using SYBR Green I nucleic acid dye
# Format: cell-based
# experimentalContext: Plasmodium falciparum; 72 h incubation; read-out: IC50 of Pf5202
pIC50: −log10 of the molar value.

As a guide, the following entries are already answered.
| compound | pIC50 |
| --- | --- |
| C[C@@H]1CC[C@H]2[C@@H](C)C(=O)O[C@@H]3O[C@@]4(C)CC[C@@H]1[C@]32OO4 | < 4.00 |
| c1cc(-c2ccncc2)ccn1 | < 4.00 |

Now take the following compound into account.
In: Given c1cnc2c(c1)ccc1cccnc12 [phen, 1,10-phenanthroline, reference compound] , state its recorded pIC50.
Out: < 4.00

----------
# testedOn: Pf3D7 20S proteasome trypsin-like (T-L) site (Plasmodium falciparum, UniProt Q8I6T3)
# Sequence (Q8I6T3 entry or part of it): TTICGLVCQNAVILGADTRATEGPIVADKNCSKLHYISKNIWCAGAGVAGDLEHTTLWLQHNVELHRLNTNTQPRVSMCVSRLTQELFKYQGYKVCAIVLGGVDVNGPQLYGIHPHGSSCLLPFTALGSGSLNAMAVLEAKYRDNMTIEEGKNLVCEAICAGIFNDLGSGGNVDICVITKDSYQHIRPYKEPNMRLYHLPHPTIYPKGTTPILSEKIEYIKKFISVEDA
# test: 20S proteasome inhibition assay using parasite lysate
# experimentalContext: Boc-LRR-AMC, 30 min
Measured IC50 by item
Give just the numeric value; µM need not be written.

As a guide, the following entries are already answered.
| compound | readoutUnit | IC50 |
| --- | --- | --- |
| O.O=[N+]([O-])[O-].O=[N+]([O-])[O-].[Cu+2].c1cnc2c(c1)ccc1cccnc12.c1cnc2c(c1)ccc1cccnc12 [Complex 1, [Cu(phen)2](NO3)2·H2O] | µM | 2.39 |
| O=[N+]([O-])c1ccc(S(=O)(=O)N2CCN(c3ccnc4cc(Cl)ccc34)CC2)c([N+](=O)[O-])c1 [VR23, reference compound] | µM | 0.78 |

In: Given c1cnc2c(c1)ccc1cccnc12 [phen, 1,10-phenanthroline, reference compound] , state its recorded IC50.
Out: 4.47

----------
# testedOn: Pf5202 20S proteasome caspase-like (C-L) site (Plasmodium falciparum, UniProt Q8I0U7)
# Sequence (Q8I0U7 entry or part of it, one chain of several): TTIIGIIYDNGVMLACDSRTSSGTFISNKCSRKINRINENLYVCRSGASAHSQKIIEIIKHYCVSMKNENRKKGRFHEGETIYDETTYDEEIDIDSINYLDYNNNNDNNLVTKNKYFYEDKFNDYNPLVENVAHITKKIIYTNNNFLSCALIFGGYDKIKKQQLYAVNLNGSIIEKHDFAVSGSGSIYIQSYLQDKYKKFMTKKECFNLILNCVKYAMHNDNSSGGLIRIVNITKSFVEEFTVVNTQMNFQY
# test: 20S proteasome inhibition assay using parasite lysate
# experimentalContext: Suc-LLE-AMC, 30 min
pIC50: −log10 of the molar value.
recordedMetric: pIC50

| compound | result |
| --- | --- |
| O.O=[N+]([O-])[O-].O=[N+]([O-])[O-].[Cu+2].c1cnc2c(c1)ccc1cccnc12.c1cnc2c(c1)ccc1cccnc12 [Complex 1, [Cu(phen)2](NO3)2·H2O] | < 4.60 |

Now take the following compound into account.
In: Given O=[N+]([O-])c1ccc(S(=O)(=O)N2CCN(c3ccnc4cc(Cl)ccc34)CC2)c([N+](=O)[O-])c1 [VR23, reference compound] , state its recorded pIC50.
Out: < 5.30

----------
Measured IC50 by item
# testedOn: Pf3D7 20S proteasome caspase-like (C-L) site (Plasmodium falciparum, UniProt Q8I0U7)
# Sequence (Q8I0U7 entry or part of it, one chain of several): as the sequence (Q8I0U7 entry or part of it, one chain of several) above
# test: 20S proteasome inhibition assay using parasite lysate
# Format: biochemical
# experimentalContext: Suc-LLE-AMC, 30 min

As a guide, the following entries are already answered.
| compound | result |
| --- | --- |
| O.O=[N+]([O-])[O-].O=[N+]([O-])[O-].[Cu+2].c1cnc2c(c1)ccc1cccnc12.c1cnc2c(c1)ccc1cccnc12 [Complex 1, [Cu(phen)2](NO3)2·H2O] | > 25 µM |
| O=[N+]([O-])c1ccc(S(=O)(=O)N2CCN(c3ccnc4cc(Cl)ccc34)CC2)c([N+](=O)[O-])c1 [VR23, reference compound] | > 5 µM |

In: Given c1cnc2c(c1)ccc1cccnc12 [phen, 1,10-phenanthroline, reference compound] , state its recorded IC50.
Out: > 25 µM

----------
# System: Plasmodium falciparum IPC5202 (Pf5202)
# test: In vitro anti-malarial activity using SYBR Green I nucleic acid dye
# Type: cell-based
# experimentalContext: Plasmodium falciparum, 72 h, read-out: IC50 of Pf5202
pIC50: −log10 of the molar value. Where a name gives a salt, the structure may show the parent alone.
recordedMetric: pIC50

In: Given CCN(CC)CCCC(C)Nc1ccnc2cc(Cl)ccc12 (stereo not shown) [CQ, Chloroquine diphosphate salt] , state its recorded pIC50.
Out: < 4.00

----------
Measured IC50 by item
# System: Plasmodium falciparum IPC5202 (Pf5202)
# test: In vitro anti-malarial activity using SYBR Green I nucleic acid dye
# Format: cell-based
# experimentalContext: 72 h incubation; read-out: IC50 of Pf5202
Give just the numeric value; µM need not be written.

| compound | testedOn | recordedMetric | number |
| --- | --- | --- | --- |
| O.O.O.O=[N+]([O-])[O-].O=[N+]([O-])[O-].[Cu+2] [Cu(NO3)2·3H2O, Copper(II) nitrate trihydrate, reference compound] | Plasmodium falciparum IPC5202 (Pf5202) | IC50 | 49.4 |

Now take the following compound into account.
In: Give Plasmodium falciparum IPC5202 (Pf5202) IC50 for O.O=[N+]([O-])[O-].O=[N+]([O-])[O-].[Cu+2].c1cnc2c(c1)ccc1cccnc12.c1cnc2c(c1)ccc1cccnc12 [Complex 1, [Cu(phen)2](NO3)2·H2O]
Out: 17.9
